# Test system: K4 kissing-loop RNA reporter;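 note: bound reporter read as fluorescence of individual clusters on recovered sequencing chips by microscopy, with normalized cluster intensities fitted with a binding model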
# Assay comment: apparent KD of K4 kissing-loop reporter; higher = weaker reporter binding
# Run parameters: Eterna round: R107; input ligand: none
Mark 1 for reported apparent KD of K4 kissing-loop reporter of 200 nM or greater; mark -1 for anything smaller.

GCCGUAGAUUGAAGGAGCGUUCUUCAGCAUACUUGCAGUGAUGUUGCAUUUUACAUGUAAGAACAGGUAGGUCGCAAUCUACGGC; 1
CGUGUAAUGUGGAGAUUUGAAAAGGCGCAUCGAGGACCGGUACGGCCGCCACUCGCUACGAGCUAGUGAUGUUGGCUCGUUCGGA [theeternabot_sameState_KL_Trp_A_23]; 1
CCAGUUUGAGUGAUGUUCAGGCAUUGGUACGAGGAUAUCGAGGAGUUGAGAAGGCGUACUACUCAACUAUGUAUGAAUACAUACC [FMN A Ex t2]; -1

input: Is the recorded value of apparent KD of K4 kissing-loop reporter equal to or greater than 200 nM for this sequence? `GCCGUAGAUUGAAGGAGCGCCGCACAUGUCCCGCUUAGUGUAGUGAUGUUACAGUGUCAGCGGCAGGUAGGUCGCAAUCUACGGC`
output: 1

input: Is the recorded value of apparent KD of K4 kissing-loop reporter equal to or greater than 200 nM for this sequence? UAGUCAUACAGAGGAUAUCGUAUGAGUGAUGUUCAUACGAUAUAAUCUAAUUGUAUAGAUGUUCGACGAGAAGGCUGUAUGACUA [FMN B Ex t1a]
output: -1

input: Is the recorded value of apparent KD of K4 kissing-loop reporter equal to or greater than 200 nM for this sequence? GGGCCUGGGCCCGUAAGGGCCUGGGCCCGUUAGGAUAUGACGUGAUUCAGAAGGGAUGGGUGGAGUGAUGUUCCACCCGAGAGGG [#2 Same State - FMN A Attempt #24 (HarryS)]
output: -1

input: Is the recorded value of apparent KD of K4 kissing-loop reporter equal to or greater than 200 nM for this sequence? GACACACUUUCAGGUGUCCAGUGACUGGAUACCAGCAUGGAAACAUGCCCUUGGCAGCCAGAACUGGAAGUGAUGUUUCCAGUAA [Theo A Mod Design7 (Brourd)]
output: 1
